# assay info: photoluminescence quantum yield (fraction); solvent given as SMILES
# test settings: in CC#N
endpoint: photoluminescence quantum yield
Answer with the value's number alone.

>>> experimental_result("Nc1n[n+]([O-])c2cc(F)ccc2[n+]1[O-]")
0.0077

Value lookup for photoluminescence quantum yield; key = [C-]#[N+]c1ccc(-c2ccc(N)cc2)cc1
0.65

Value lookup for photoluminescence quantum yield; key = CN(C)c1ccc(C#Cc2ccc(C#Cc3ccc(C#Cc4ccccc4C#N)cc3C#N)cc2C#N)cc1
0.002

Value lookup for photoluminescence quantum yield; key = C[N+]1=C(/C=C/C2=C3Oc4c(cc5c6c4CCCN6CCC5)C(c4ccccc4C(=O)O)=C3CCC2)C(C)(C)c2c1ccc1ccccc21
0.2

Value lookup for photoluminescence quantum yield; key = CCN(CC)c1ccc2cc(/C=C(\C#N)c3nc4ccccc4o3)c(=O)oc2c1
0.0071

Value lookup for photoluminescence quantum yield; key = Nc1cccc2c1C(=O)c1ccccc1-2
0.057

Value lookup for photoluminescence quantum yield; key = CC(=O)c1nc(-c2ccc(N(c3ccccc3)c3ccccc3)cc2)oc1C
0.486

Value lookup for photoluminescence quantum yield; key = CC1=CC2=Nc3nc(C)[n+](C)cc3CN2C=C1
0.85

Value lookup for photoluminescence quantum yield; key = CC1=[N+]2C(=C(C3=CC4OCCOCCOCCOCCOC4C=C3)c3c4ccccc4c(/C=C/c4ccc(N(C)C)cc4)n3[B-]2(F)F)c2ccccc21 (stereo not given)
0.24

Value lookup for photoluminescence quantum yield; key = Cc1oc2c(Cl)cc3c(C)cc(=O)oc3c2c1C
0.007
